test system: IGROV1 ovarian; assay: NCI-60 one-dose screen, 48 h (100 = growth as untreated, 0 = no growth, -100 = all killed); conditions: 10 µM unless noted
This is part of a sample that, as a whole, favours compounds with a hit. Of some 83,000 tested, about 20% had one in any assay.
growth values, listed per item
Just the number please, in %, no unit attached.

Examples with answers:
molecule: COc1cc(/C=N/O)nc(-c2ccccn2)c1
growth [%]: 19.2
--
molecule: C=C1C(=O)O[C@H]2[C@H]1CC/C(CNC(=O)/C=C/c1cccc(OC)c1)=C\CC[C@@]1(C)O[C@@H]21
growth [%]: 20.6
--
molecule: COc1cc2c(c(O)c1Br)C(=O)c1c(O)cc(C[C@H](C)O)cc1[C@H]2[C@H]1c2cc(C[C@H](C)O)cc(O)c2C(=O)c2c1cc(OC)c(Br)c2O
growth [%]: 2.65
--
molecule: S=c1cc(S)c2cc(Br)ccc2[nH]1
growth [%]: 89.5

Sure, the documented growth for O=C(NO)c1ccc(-n2nc(-c3ccccc3)c3ccccc32)cc1 is 44.9

Sure, the documented growth for N#C/C(=C\c1c(-c2ccccc2)[nH]c2ccccc12)C(=O)c1ccc(Cl)cc1 is 59

Sure, the documented growth for Cn1ccc2c1CC1CN(Cc3ccco3)C(=O)C1C2C(=O)O (centres undefined) is 104

====

tested on: LOX IMVI melanoma; test: NCI-60 one-dose screen, 48 h (100 = growth as untreated, 0 = no growth, -100 = all killed); conditions: 10 µM unless noted
Compounds without any hit were thinned out: in the full panel of roughly 83,000, 20% have a hit.
endpoint-name: growth (%)
Just the number please, in %, no unit attached.

compound: COc1cc2c(=O)n(CCN(C)C)c3c4cc5c(cc4ccc3c2cc1OC)OCO5
growth (%): -58.3

compound: COc1ccc(C/C(=C(\C)c2ccc(OCCN3CCCC3)cc2)c2ccc(OCCN3CCCC3)cc2)cc1
growth (%): -92.5

compound: c1ccc2c(-c3nccs3)c[nH]c2c1
growth (%): 99.7

Sure, the documented growth for COc1ccc(-c2nc(S(=O)(=O)c3ccccc3)c(S(=O)CC(=O)N3CCC(C)CC3)o2)cc1 (stereo unspecified) is -4.12

Sure, the documented growth for CCCCCN1C=C/C(=C\C(=O)N(C)c2ccc(OC(F)(F)F)cc2)c2ccccc21 is 101

Sure, the documented growth for Cc1nc2sccn2c1-c1cn2ccsc2n1 is 98.4

====

growth values, listed per item
tested on: SK-MEL-5 melanoma; experiment: NCI-60 one-dose screen, 48 h (100 = growth as untreated, 0 = no growth, -100 = all killed); details: 10 µM unless noted
Compounds without any hit were thinned out: in the full panel of roughly 83,000, 20% have a hit.
Just the number please, in %, no unit attached.

Examples with answers:
compound: CCOC(=O)Oc1c(OC)cc(C(=O)c2ccc(OC)c(O)c2OC)cc1OC
unit-of-measure: %
growth: 32
--
compound: COc1ccc(/C=C2\COc3ccc(-c4ccccc4)cc3C2=O)c(OC)c1
unit-of-measure: %
growth: 81.2
--
compound: COc1cc2c(-c3cc4c(cc3CNCCc3ccc5c(c3)OCO5)OCO4)cccc2c(OC)c1O
unit-of-measure: %
growth: 78.8
--
compound: CSc1nc2sc3cccc(Cl)c3n2c(=N)c1C#N
unit-of-measure: %
growth: 95.4
--
compound: CNCCOc1nc2c3cnccc3cc(-c3cc(OC)c(OC)c(OC)c3)c2c2ccncc12
unit-of-measure: %
growth: -97.7
--
compound: Cc1cc2nc3c4ccc(Br)cc4n(CCN(C)C)c3nc2cc1C
unit-of-measure: %
growth: 4.17
--
compound: O=C(CCN1CCCC1)Nc1ccc2c(NCCc3ccccc3)c3ccccc3nc2c1
unit-of-measure: %
growth: 11.2
--
compound: O=Cc1cc2ccccc2nc1Oc1ccc(C(F)(F)F)cc1
unit-of-measure: %
growth: 94.5
--
compound: CCCCC/C=C/C(C)=C/C1CC(C)C/C=C/CCC(O)C(OC(N)=O)CCC(C)CC(O)C(C)C(=O)O1 (stereo not given)
unit-of-measure: %
growth: 61.4

Would you kindly look at the next entry?
Sure, the documented growth for Cc1cc2nc3c4cc([N+](=O)[O-])ccc4n(CCN(C)C)c3nc2cc1C is -73.4

====

test system: M14 melanoma; assay: NCI-60 one-dose screen, 48 h (100 = growth as untreated, 0 = no growth, -100 = all killed); conditions: 10 µM unless noted
About 83,000 compounds went through this panel and 20% of them were active in at least one assay; those are over-represented in the sample as a whole.
Outcome label depends on growth relative to 90%: at/above gives true (1), below gives false (0).

Look over these answered cases.
compound: Cc1c(C(=O)NCCC(=O)NO)sc2ncnc(Nc3ccc(F)c(Cl)c3)c12
label: true (1)

compound: Oc1ccc(OCCOc2ccc(O)cc2)cc1
label: false (0)

compound: CC(Oc1ccc(C(=O)O)cc1C(F)(F)F)c1ccc(Oc2ccccc2)cn1 (centres undefined)
label: true (1)

compound: CCCCCN1C=C/C(=C\C(=O)N(C)c2ccccc2Br)c2ccccc21
label: true (1)

compound: O=C1c2ccccc2C(=O)c2c([N+](=O)[O-])ccc(Cl)c21
label: true (1)

Asked: Is growth at least 90%? Consider Fc1ccc(-c2cn3c(nc4ccccc43)c(-c3ccccc3)n2)cc1
Given back: true (1)

Asked: Is growth at least 90%? Consider O=C1c2c(c3c4cccc(F)c4[nH]c3c3ccc4ccccc4c23)C(=O)N1O
Given back: false (0)

Asked: Is growth at least 90%? Consider O=C(/C=C(/C=C/c1csc2ccccc12)OB(F)F)/C=C/c1csc2ccccc12
Given back: false (0)

Asked: Is growth at least 90%? Consider O=S(=O)(NCCNc1nccc(-c2c(-c3cccc(F)c3)nc3sccn23)n1)c1ccc(Br)cc1
Given back: false (0)

Asked: Is growth at least 90%? Consider [O-][n+]1c(Cl)cc(Cl)c2ccccc21
Given back: true (1)

Asked: Is growth at least 90%? Consider C=C1C(=O)O[C@H]2[C@H]1CC/C(CNC(=O)C(C)c1ccc(CC(C)C)cc1)=C\CC[C@@]1(C)O[C@@H]21 (some centres undefined)
Given back: false (0)

====

test system: SNB-19 CNS; test: NCI-60 one-dose screen, 48 h; conditions: 10 µM unless noted
About 83,000 compounds went through this panel and 20% of them were active in at least one assay; those are over-represented in the sample as a whole. Activity calls are given as the source filed them. The calls were made as follows: active = growth percent below 10; inactive = the rest.
Respond only with the outcome that fits, drawn from YES (active), NO (inactive)

Look over these answered cases.
compound: COc1cc(/C(C)=C(\c2ccc(Cl)cc2)c2ccc(OCCN3CCCC3)cc2)ccc1F
label: NO
//
compound: COc1ccc(C(=O)C2C(C#N)C(C#N)C3C=Cc4ccccc4N32)cc1 (stereo not drawn)
label: NO
//
compound: CC(=O)[C@@H]1CC[C@]2(C(N)=O)CC[C@]3(C)[C@H](CC[C@@H]4[C@@]5(C)CCCNC(C)(C)[C@@H]5CC[C@]43C)[C@@H]12
label: NO
//
compound: CC(=O)Nc1cccc(-c2ccc3c(c2)NC(=O)/C3=C\c2ccc[nH]2)c1
label: NO

Asked: What did the test return for CCOC(=O)Oc1c(OC)cc(C(=O)c2ccc(OC)c(O)c2OC)cc1OC ?
Given back: NO

====

tested on: A549/ATCC NSCLC; assay: NCI-60 one-dose screen, 48 h; conditions: 10 µM unless noted
About 83,000 compounds went through this panel and 20% of them were active in at least one assay; those are over-represented in the sample as a whole. Activity calls are given as the source filed them. How the source made its calls: active means growth percent below 10; inactive means the rest.
Respond only with the outcome that fits, drawn from YES (active), NO (inactive)

Look over these answered cases.
compound: CC1(C)NCCC[C@]2(C)[C@H]3CC(=O)[C@H]4[C@@H]5C[C@](C)(CO)CC[C@]5(C)CC[C@@]4(C)[C@]3(C)CC[C@@H]12
label: NO

compound: O=C(N/N=C/c1ccc(Oc2ccccc2)cc1)c1cnn2c1NC(c1ccccc1)C2 (centres undefined)
label: YES

compound: N=C1C(c2nc3ccccc3s2)=C(O)CN1c1cc(Cl)cc(Cl)c1
label: NO

compound: COc1ccc(C(=O)c2nc3ccccc3n2CC(=O)c2ccc(F)cc2)cc1
label: NO

Asked: What did the test return for CCN1C(=O)N(CC)C2Nn3c(s/c(=C\c4ccc(OC)cc4)c3=O)=NC21 (centres undefined) ?
Given back: NO

Asked: What did the test return for Cc1ccc(NS(=O)(=O)c2ccc(-c3cnc(C4CC4)o3)cc2)cc1C(F)(F)F ?
Given back: NO

Asked: What did the test return for O=C(O)c1ccc2c(c1)C(=O)N(Cc1ccccc1)C2=O ?
Given back: NO

Asked: What did the test return for COc1ccc(C/C(=C(\C)c2ccc(OCCN3CCCC3)cc2)c2ccc(OCCN3CCCC3)cc2)cc1 ?
Given back: NO

Asked: What did the test return for COc1cc(/C=C\C(=O)O)ccc1OCc1ccccc1 ?
Given back: NO

Hey, just so you know, these numbers are from PubChem BioAssay (NCI).
